target: cloned human dopamine D3 receptors (Homo sapiens); construct: expressed in transfected cells; membrane homogenate; assay: [N-Methyl-3H]Spiroperidol binding to cloned human dopamine D3 receptors; conditions: read-out: d3Ki
Sequence (P35462 whole entry): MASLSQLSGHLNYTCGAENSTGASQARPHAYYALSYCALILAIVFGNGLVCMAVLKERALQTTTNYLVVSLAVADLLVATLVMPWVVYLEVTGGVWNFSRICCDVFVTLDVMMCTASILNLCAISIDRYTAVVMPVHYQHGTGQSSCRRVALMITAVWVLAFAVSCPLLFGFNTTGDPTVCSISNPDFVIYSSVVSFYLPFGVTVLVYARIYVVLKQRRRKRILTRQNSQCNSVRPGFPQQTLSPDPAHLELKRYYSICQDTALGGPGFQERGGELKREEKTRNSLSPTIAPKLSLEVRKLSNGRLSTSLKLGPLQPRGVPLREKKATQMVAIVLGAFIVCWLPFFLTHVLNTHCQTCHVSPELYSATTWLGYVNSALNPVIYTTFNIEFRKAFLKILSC
Flag rule - Ki less than 4 nM flags fulfilled; the remaining entries get not fulfilled.

Use the examples below as a reference point.
compound: O=C(CCCN1CCN(c2csc3cc(C(F)(F)F)ccc23)CC1)NC1CCCCC1 [compound 826821]
study-target: cloned human dopamine D3 receptors (Homo sapiens)
assigned-label: not fulfilled
--
compound: O=C(CCCN1CCN(c2csc3cc(F)ccc23)CC1)N1CCCC1 [compound 826859]
study-target: cloned human dopamine D3 receptors (Homo sapiens)
assigned-label: fulfilled
--
compound: CC[C@H]1CC[C@H](NC(=O)CCCN2CCN(c3csc4cc(F)ccc34)CC2)CC1 [compound 826846]
study-target: cloned human dopamine D3 receptors (Homo sapiens)
assigned-label: not fulfilled
--
compound: CN(C(=O)CCCN1CCN(c2csc3cc(F)ccc23)CC1)C1CCCCC1 [compound 826848]
study-target: cloned human dopamine D3 receptors (Homo sapiens)
assigned-label: not fulfilled

// next entry
(Q) Dear colleague, could you confirm whether Ki of O=C(CCCN1CCN(c2csc3cc(C(F)(F)F)ccc23)CC1)N1CCCC1 [compound 826819] falls below 4 nM? Thanks.
(A) not fulfilled
